- Test system: Cyclin-dependent kinase 1 (Homo sapiens); note: in the data inactive means no Kd found up to 30 µM
- Sequence (P06493 whole entry): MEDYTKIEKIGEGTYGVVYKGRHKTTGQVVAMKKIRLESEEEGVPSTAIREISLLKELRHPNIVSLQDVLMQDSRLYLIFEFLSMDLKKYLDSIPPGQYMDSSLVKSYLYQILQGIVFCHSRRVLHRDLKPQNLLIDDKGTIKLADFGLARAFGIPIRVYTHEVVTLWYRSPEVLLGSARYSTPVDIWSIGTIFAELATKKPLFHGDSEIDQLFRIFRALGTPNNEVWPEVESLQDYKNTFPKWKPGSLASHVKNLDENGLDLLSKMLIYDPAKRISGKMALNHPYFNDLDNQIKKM
Active and inactive are the calls of the source.
Respond using exactly one of the listed classes: class 1 = active, class 0 = inactive

Example cases with answers are listed next.
# Molecule, Assigned category
data = [
    ("C[C@@]1(C(=O)Nc2ccc(F)nc2)CCCN1c1nc(Nc2cc(C3CC3)n[nH]2)c2cccn2n1", "class 0"),
    ("NC(=O)c1ccc(N(C(N)=O)c2c(F)cccc2F)nc1-c1ccc(F)cc1F", "class 0"),
]

Recorded call for O=C(NOC[C@H](O)CO)c1ccc(F)c(F)c1Nc1ccc(I)cc1F ?
class 0

Recorded call for COc1cc2nccc(Oc3ccc(NC(=O)C4(C(=O)Nc5ccc(F)cc5)CC4)cc3)c2cc1OC [CABOZANTINIB] ?
class 0

Recorded call for COc1cc2ncnc(Nc3ccc(F)c(Cl)c3)c2cc1NC(=O)/C=C/CN1CCCCC1 [DACOMITINIB ANHYDROUS] ?
class 0

Recorded call for c1cc(OCCN2CCCCC2)cc(-c2n[nH]c3ccc(-c4nc[nH]n4)cc23)c1 ?
class 0

Recorded call for Cc1c(Cn2c(C)nc3c(C(=O)O)cc(N4CCOCC4)cc32)cccc1C(F)(F)F ?
class 0

Recorded call for CNC(=O)c1cccc(-c2ccc3c(N4CCOC[C@@H]4C)nc(N4CCOC[C@@H]4C)nc3n2)c1 ?
class 0

Recorded call for Cc1ccc(C(=O)Nc2ccc(Oc3cc4cnn(C)c4cc3-c3cn[nH]c3)c(F)c2)c(=O)n1-c1ccc(F)cc1 ?
class 0

Recorded call for COc1cc2ncnc(Nc3ccc(O)cc3)c2cc1OC ?
class 0

Recorded call for COc1cccc(Nc2ncnn3ccc(CN4CC[C@@H](N)[C@H](O)C4)c23)c1 ?
class 0

Recorded call for N#CCNC(=O)c1ccc(-c2ccnc(Nc3ccc(N4CCOCC4)cc3)n2)cc1 ?
class 0

Recorded call for COc1cccc2cc(-c3nc([C@H]4CC[C@H](C(=O)O)CC4)n4ncnc(N)c34)[nH]c12 ?
class 0

Recorded call for CCc1nc(C(N)=O)c(Nc2ccc(N3CCC(N4CCN(C)CC4)CC3)c(OC)c2)nc1NC1CCOCC1 ?
class 0

Recorded call for COc1cc2c(Oc3ccc4[nH]c(C)cc4c3F)ncnc2cc1OCCCN1CCCC1 ?
class 0

Recorded call for S=C(NCc1ccc2c(c1)OCO2)N1CCN(c2ncnc3c2oc2ccccc23)CC1 ?
class 0

Recorded call for O=C(Nc1ccc(OC(F)(F)F)cc1)c1sccc1NCc1ccnc2ccccc12 ?
class 0

Recorded call for Cc1cc(-c2cc(OC(=O)c3ccccc3)ccc2Cl)cc2nnc(Nc3ccc(OCCN4CCCC4)cc3)nc12 ?
class 0

* * *

- Test system: cAMP-dependent protein kinase catalytic subunit beta (Homo sapiens, UniProt P22694); note: in the data inactive means no Kd found up to 30 µM
The source made the active and inactive calls.
Property: Kd

Reference set, count: 3
# Structure smiles string, Kd
measured = [
    ("COCCN1CCN(Cc2ccc(-c3n[nH]c4c3C(=O)c3c(NC(=O)NN5CCOCC5)cccc3-4)cc2)CC1", "> 30 µM (inactive)"),
    ("CNC(=O)c1ccc(Nc2ncc(C(F)(F)F)c(NCc3nccnc3N(C)S(C)(=O)=O)n2)cc1", "> 30 µM (inactive)"),
    ("NC[C@@](O)(c1ccc(Cl)cc1)c1ccc(-c2cn[nH]c2)cc1", "0.014 µM (active)"),
]

Request: Kd, test system cAMP-dependent protein kinase catalytic subunit beta (Homo sapiens, UniProt P22694), entry FC(F)(F)c1ccc(CNc2ccc(Cc3c[nH]c4ncc(Cl)cc34)cn2)cn1; note: in the data inactive means no Kd found up to 30 µM
> 30 µM (inactive)

Request: Kd, test system cAMP-dependent protein kinase catalytic subunit beta (Homo sapiens, UniProt P22694), entry C[C@]1(O)C[C@@H](c2nc(-c3ccc4ccc(-c5ccccc5)nc4c3)c3c(N)nccn32)C1; note: in the data inactive means no Kd found up to 30 µM
> 30 µM (inactive)

Request: Kd, test system cAMP-dependent protein kinase catalytic subunit beta (Homo sapiens, UniProt P22694), entry O=C(O)c1ccc2c(c1)nc(Nc1cccc(Cl)c1)c1ccncc12; note: in the data inactive means no Kd found up to 30 µM
> 30 µM (inactive)

Request: Kd, test system cAMP-dependent protein kinase catalytic subunit beta (Homo sapiens, UniProt P22694), entry CNC(=O)c1cccc(-c2ccc3c(N4CCOC[C@@H]4C)nc(N4CCOC[C@@H]4C)nc3n2)c1; note: in the data inactive means no Kd found up to 30 µM
> 30 µM (inactive)

Request: Kd, test system cAMP-dependent protein kinase catalytic subunit beta (Homo sapiens, UniProt P22694), entry Cc1cc(Nc2nc(N[C@@H](C)c3ncc(F)cn3)ncc2Cl)n[nH]1; note: in the data inactive means no Kd found up to 30 µM
> 30 µM (inactive)
